Documented % inhibition across a set of binders
# subject_of_test: T1, recombinant human VEGF165 (human, UniProt P15692-4 27-191)
# T1 construct: also called hVEGF165; rhVEGF165
# method_summary: VEGF165/hVEGFR1-Fc competition AlphaScreen
# Protocol: Finally, streptavidin donor beads (20 μg/ml) are added and after 1 hour of incubation in the dark, fluorescence is measured on the Envision microplate reader.

# binder, % inhibition
data = [
    ("VEGFBII022 (VHH, biparatopic bivalent VHH in one chain; also called VEGFBII23B04-9GS-5B05) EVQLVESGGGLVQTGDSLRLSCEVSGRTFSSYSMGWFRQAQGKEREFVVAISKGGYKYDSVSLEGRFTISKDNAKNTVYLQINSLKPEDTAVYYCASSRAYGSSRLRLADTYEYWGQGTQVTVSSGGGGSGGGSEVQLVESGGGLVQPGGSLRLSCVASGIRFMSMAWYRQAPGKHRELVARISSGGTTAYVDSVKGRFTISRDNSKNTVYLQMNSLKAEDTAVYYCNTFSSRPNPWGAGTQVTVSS", "98%"),
    ("VEGFBII023 (VHH, biparatopic bivalent VHH in one chain; also called VEGFBII23B04-40GS-10E07; VEGFBI023) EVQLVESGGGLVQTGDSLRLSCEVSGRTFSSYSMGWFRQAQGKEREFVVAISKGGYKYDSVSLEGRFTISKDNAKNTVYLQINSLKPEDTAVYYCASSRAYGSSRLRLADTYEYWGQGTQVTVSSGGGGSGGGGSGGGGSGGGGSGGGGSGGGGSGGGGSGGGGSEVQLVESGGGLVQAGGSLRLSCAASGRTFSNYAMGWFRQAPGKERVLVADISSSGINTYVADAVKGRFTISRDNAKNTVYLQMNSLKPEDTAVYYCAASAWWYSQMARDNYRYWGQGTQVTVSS", "87%"),
]

From: patent US20170247475A1
